- tgt: KDR (Homo sapiens, UniProt P35968)
- Sequence (P35968 20-1356): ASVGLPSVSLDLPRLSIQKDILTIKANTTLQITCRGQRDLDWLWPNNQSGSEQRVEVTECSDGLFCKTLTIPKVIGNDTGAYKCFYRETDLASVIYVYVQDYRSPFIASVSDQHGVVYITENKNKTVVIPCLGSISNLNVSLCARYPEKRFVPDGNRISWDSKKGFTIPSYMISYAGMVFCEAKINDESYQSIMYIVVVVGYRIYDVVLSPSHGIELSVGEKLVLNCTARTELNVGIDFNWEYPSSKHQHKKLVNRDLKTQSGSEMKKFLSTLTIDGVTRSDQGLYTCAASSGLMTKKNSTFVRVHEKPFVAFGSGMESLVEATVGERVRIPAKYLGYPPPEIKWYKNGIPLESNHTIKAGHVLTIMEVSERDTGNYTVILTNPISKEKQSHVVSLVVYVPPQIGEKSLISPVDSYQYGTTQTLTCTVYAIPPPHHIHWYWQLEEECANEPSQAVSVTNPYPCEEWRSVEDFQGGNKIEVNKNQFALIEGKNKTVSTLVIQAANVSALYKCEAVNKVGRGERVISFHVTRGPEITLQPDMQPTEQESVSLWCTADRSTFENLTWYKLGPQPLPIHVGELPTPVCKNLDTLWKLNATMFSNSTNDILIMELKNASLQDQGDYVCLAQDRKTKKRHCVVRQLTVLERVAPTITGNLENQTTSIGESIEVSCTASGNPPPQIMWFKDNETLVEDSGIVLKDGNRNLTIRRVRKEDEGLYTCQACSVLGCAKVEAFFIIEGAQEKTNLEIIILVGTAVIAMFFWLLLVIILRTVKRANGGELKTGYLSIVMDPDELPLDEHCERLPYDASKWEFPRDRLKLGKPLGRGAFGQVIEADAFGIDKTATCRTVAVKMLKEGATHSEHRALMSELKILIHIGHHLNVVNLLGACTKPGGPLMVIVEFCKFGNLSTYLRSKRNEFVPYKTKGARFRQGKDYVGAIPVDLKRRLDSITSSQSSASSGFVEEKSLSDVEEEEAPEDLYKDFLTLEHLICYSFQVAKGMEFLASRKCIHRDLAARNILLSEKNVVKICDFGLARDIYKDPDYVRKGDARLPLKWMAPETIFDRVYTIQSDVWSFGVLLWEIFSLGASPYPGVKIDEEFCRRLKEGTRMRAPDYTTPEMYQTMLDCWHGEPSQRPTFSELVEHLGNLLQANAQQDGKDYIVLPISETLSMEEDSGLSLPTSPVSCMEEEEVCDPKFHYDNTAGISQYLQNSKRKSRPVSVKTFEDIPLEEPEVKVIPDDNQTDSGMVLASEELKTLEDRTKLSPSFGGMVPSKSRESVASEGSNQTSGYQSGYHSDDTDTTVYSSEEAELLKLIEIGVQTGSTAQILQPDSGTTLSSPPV
- test method notes: KDR cellular assay (KDR receptor phosphorylation ELISA)
- study conditions: KDR transfected 3T3 (embryonic mouse) cells, VEGF stimulated; read-out: IC50 inhibition of KDR phosphorylation
pIC50: −log10 of the molar value.
pIC50 reference

Could you tell me which pIC50 is on file for NC(=O)[C@@H]1[C@H](Nc2nc(Nc3cnn([C@H]4CCOC4)c3)ncc2Cl)[C@H]2C=C[C@@H]1C2 ?
> 7.00

Could you tell me which pIC50 is on file for Cn1cc(Nc2ncc(Cl)c(Nc3ccccc3C3(O)CCOCC3)n2)cn1 ?
6.00 to 7.00

Could you tell me which pIC50 is on file for COCCOCCn1cc(Nc2ncc(Cl)c(N[C@H]3[C@@H](C(N)=O)[C@@H]4C=C[C@H]3C4)n2)cn1 ?
> 7.00

Could you tell me which pIC50 is on file for Cc1c(Nc2ncc(Cl)c(N[C@H]3[C@@H](C(N)=O)[C@@H]4C=C[C@H]3C4)n2)cnn1C ?
> 7.00

Could you tell me which pIC50 is on file for CCn1cc(Nc2nc(C)c(Cl)c(N[C@@H]3[C@H](C(N)=O)[C@H]4C=C[C@@H]3C4)n2)cn1.CCn1cc(Nc2nc(C)c(Cl)c(N[C@H]3[C@@H](C(N)=O)[C@@H]4C=C[C@H]3C4)n2)cn1 (mixture of isomers) ?
6.00 to 7.00

Could you tell me which pIC50 is on file for COc1cccc(Cn2cc(Nc3ncc(Br)c(N[C@H]4[C@@H](C(N)=O)[C@@H]5C=C[C@H]4C5)n3)cn2)c1 ?
> 7.00

Could you tell me which pIC50 is on file for Cn1cc(Nc2ncc([N+](=O)[O-])c(N[C@H]3[C@@H](C(N)=O)[C@@H]4C=C[C@H]3C4)n2)cn1 ?
6.00 to 7.00
